For each record, write down the corresponding pIC50.
tested.system: Nuclear factor NF-kappa-B complex (Homo sapiens, UniProt P19838+Q00653+Q04206)
Sequence (P19838 1-433 limits assumed): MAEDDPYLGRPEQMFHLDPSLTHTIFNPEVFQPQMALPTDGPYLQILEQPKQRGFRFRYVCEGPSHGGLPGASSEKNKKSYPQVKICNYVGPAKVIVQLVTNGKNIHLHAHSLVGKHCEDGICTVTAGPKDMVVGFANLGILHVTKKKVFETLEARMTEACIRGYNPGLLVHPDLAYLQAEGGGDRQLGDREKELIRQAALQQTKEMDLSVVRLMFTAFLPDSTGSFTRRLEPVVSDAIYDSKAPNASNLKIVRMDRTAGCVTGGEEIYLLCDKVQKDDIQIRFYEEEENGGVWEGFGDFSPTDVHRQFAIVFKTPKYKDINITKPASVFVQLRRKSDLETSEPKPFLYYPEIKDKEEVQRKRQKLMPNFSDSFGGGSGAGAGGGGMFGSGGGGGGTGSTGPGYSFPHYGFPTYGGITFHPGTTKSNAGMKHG
Sequence (Q00653 1-454 limits assumed): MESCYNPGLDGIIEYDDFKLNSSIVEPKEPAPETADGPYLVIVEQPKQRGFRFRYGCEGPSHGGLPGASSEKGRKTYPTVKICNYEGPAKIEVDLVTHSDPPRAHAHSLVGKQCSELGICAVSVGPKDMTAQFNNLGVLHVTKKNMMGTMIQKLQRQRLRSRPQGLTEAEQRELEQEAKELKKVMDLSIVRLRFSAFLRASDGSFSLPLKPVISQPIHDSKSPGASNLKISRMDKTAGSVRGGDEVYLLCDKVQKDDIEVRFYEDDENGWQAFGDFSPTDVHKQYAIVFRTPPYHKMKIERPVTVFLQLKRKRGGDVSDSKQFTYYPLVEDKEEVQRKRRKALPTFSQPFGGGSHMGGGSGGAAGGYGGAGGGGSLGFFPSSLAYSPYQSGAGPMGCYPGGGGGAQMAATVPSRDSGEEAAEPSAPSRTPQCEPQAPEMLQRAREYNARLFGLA
Sequence (Q04206 whole entry): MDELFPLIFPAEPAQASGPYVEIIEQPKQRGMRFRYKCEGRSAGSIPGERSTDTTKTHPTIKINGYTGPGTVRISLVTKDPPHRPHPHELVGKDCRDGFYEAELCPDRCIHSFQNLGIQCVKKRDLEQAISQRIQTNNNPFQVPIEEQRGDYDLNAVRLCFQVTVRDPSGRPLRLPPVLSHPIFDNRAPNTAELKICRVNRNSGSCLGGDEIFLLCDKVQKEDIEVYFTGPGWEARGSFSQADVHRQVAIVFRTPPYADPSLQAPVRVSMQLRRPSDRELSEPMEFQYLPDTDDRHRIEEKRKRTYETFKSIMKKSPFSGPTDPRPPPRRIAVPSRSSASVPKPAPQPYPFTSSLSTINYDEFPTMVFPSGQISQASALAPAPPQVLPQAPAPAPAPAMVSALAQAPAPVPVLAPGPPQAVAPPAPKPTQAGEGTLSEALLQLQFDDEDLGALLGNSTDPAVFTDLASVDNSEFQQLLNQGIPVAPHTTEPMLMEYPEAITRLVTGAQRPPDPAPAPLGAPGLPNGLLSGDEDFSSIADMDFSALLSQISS
assay: Inhibition of NF-kappaB (unknown origin) transcriptional activity in LPS-induced mouse RAW264.7 cells after 1 hr by secreted alkaline phosphatase assay
Answers are plain numbers, as −log10 of the molar value.

O=C(Nc1cc(C(F)(F)F)cc(C(F)(F)F)c1)c1cc2ccccc2o1 : 4.47
COc1cc2c(cc1O)CCC(C(=O)Nc1ccccc1)O2 (centres undefined) : 4.43
S=C(S)N1CCCC1 [PYRROLIDINE DITHIOCARBAMATE] : 4.46

Lab note: next compound to report on.
get_value(item= O=C(Nc1ccc(Cl)c(Cl)c1)C1Cc2ccccc2O1 (centres undefined) , readout=pIC50) returns 4.64

----------
tested.system: Nuclear factor NF-kappa-B complex (Homo sapiens) (UniProt Q00653+P19838+Q04206)
Sequence (P19838 whole entry, looked up): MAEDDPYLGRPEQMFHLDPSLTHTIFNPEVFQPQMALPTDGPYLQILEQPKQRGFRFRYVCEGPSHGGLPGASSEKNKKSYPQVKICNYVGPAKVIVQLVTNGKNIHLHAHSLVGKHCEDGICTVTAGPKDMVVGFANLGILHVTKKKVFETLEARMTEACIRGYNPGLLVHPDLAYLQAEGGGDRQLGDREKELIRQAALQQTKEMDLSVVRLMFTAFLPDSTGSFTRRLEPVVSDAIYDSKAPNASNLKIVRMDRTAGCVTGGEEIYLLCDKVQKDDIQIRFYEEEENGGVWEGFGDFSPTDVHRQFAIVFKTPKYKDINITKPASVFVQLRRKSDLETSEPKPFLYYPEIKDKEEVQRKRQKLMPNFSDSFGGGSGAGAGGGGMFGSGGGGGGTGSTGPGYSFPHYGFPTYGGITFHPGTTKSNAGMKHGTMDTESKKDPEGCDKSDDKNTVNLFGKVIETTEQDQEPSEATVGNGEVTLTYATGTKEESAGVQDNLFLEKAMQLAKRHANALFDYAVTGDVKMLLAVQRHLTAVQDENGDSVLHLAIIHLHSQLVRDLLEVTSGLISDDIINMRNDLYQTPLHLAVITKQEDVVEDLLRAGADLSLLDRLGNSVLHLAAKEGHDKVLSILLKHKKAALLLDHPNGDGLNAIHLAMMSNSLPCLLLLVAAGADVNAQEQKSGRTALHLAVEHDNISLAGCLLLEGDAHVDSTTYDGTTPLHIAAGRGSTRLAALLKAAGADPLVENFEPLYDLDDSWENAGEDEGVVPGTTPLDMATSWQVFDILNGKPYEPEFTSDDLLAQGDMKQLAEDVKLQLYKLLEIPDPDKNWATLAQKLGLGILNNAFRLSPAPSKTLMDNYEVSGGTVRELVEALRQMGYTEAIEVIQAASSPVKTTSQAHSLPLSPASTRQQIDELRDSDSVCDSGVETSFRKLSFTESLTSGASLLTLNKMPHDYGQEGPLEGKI
Sequence (Q00653 whole entry, looked up): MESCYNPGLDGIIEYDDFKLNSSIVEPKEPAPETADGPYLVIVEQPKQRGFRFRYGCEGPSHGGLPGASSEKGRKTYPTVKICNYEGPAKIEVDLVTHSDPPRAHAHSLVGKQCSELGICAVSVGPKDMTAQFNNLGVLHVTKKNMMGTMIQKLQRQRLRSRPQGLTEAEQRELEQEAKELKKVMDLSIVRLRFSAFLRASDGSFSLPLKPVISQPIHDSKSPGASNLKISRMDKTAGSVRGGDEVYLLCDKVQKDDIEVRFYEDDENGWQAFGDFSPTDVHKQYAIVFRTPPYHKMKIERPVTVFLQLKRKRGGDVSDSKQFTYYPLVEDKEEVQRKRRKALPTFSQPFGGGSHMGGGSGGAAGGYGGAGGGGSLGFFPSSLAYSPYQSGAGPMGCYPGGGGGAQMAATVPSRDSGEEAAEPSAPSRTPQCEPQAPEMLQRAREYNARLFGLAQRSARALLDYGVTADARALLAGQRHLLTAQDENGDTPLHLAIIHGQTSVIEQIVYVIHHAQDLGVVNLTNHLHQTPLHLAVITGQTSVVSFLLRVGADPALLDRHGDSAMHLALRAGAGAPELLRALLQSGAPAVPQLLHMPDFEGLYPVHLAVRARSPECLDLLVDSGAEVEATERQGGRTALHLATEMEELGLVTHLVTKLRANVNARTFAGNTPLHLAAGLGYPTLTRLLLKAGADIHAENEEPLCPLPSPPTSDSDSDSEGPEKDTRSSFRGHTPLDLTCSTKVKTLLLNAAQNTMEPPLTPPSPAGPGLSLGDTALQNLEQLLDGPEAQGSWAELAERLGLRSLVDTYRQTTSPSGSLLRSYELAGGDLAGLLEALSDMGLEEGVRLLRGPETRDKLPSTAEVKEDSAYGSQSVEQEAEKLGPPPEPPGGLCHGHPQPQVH
Sequence (Q04206 whole entry, looked up): as the sequence (Q04206 whole entry) above
assay: Inhibition of NF-kappaB (unknown origin) transcriptional activity in LPS-induced mouse RAW264.7 cells at 30 uM after 1 hr by secreted alkaline phosphatase assay relative to control
Format: cell-based
Use Satisfied when the recorded inhibition is no lower than 30%; use Not satisfied when it is lower.

Use these answered entries as a reference point.
COc1cc(NC(=O)C2Cc3ccccc3O2)cc(OC)c1 (configuration not stated) : Not satisfied
Cc1ccccc1NC(=O)c1cc2ccccc2o1 : Satisfied
O=C(Nc1cccc([N+](=O)[O-])c1)C1Cc2ccccc2O1 (configuration not stated) : Satisfied
O=C(Nc1ccc([N+](=O)[O-])cc1)C1Cc2ccccc2O1 (configuration not stated) : Satisfied
O=C(Nc1ccccc1C(F)(F)F)c1cc2ccccc2o1 : Satisfied

Exam item: decide whether the reported inhibition for "COc1ccc(OC)c(NC(=O)c2cc3ccccc3o2)c1" is at least 30%.
Not satisfied

Exam item: decide whether the reported inhibition for "O=C(Nc1cccc(Cl)c1)c1cc2ccccc2o1" is at least 30%.
Satisfied

Exam item: decide whether the reported inhibition for O=C(Nc1cc(C(F)(F)F)cc(C(F)(F)F)c1)C1Cc2ccccc2O1 (configuration not stated) is at least 30%.
Not satisfied

Exam item: decide whether the reported inhibition for "COc1ccc(NC(=O)c2cc3ccccc3o2)cc1" is at least 30%.
Satisfied

----------
assay: Cytotoxicity against human HCT15 cells assessed as cell viability at 10 uM after 72 hrs by sulforhodamine B assay relative to control
Type: functional
assay.context: HCT-15, 72 h, read-out: Activity
measured.metric: viability at 10 µM
Report field: quantity (unit follows the number).

Worked examples follow.
O=C(Nc1ccc([N+](=O)[O-])cc1)C1Cc2ccccc2O1 (centres undefined) : 81%
O=C(Nc1cccc(C(F)(F)F)c1)C1Cc2ccccc2O1 (centres undefined) : 95%
O=C(Nc1cccc(O)c1)c1cc2ccccc2o1 : 85%
O=C(Nc1cc(Cl)cc(Cl)c1)c1cc2ccccc2o1 : 95%
COc1ccc(NC(=O)C2Cc3ccccc3O2)cc1OC (centres undefined) : 92%
Cc1cccc(NC(=O)C2Cc3ccccc3O2)c1 (centres undefined) : 99%
COc1ccc(OC)c(NC(=O)C2Cc3ccccc3O2)c1 (centres undefined) : 97%
O=C(Nc1ccccc1O)C1Cc2ccccc2O1 (centres undefined) : 102%

get_value(item= "Cc1ccc(C)c(NC(=O)c2cc3ccccc3o2)c1" , readout=viability at 10 µM) returns 94%
